system: human colon cancer cells HT29; test: MTT assay, survival/growth of cultured human colon cancer cells HT29; type: cell-based; settings: read-out: concentration needed for 50% growth inhibition (ID50); Table 3; HT-29
RECORDED_ENDPOINT: IC50 (nM)

{"COMPOUND": "CCNCCCCNCC1CCC1CNCCCCNCC (stereo not drawn) [SL-11100]", "ENDPOINT_RESULT": 2000}
{"COMPOUND": "CCNC/C=C\\CNC/C=C\\CNC/C=C\\CNCC [SL-11108]", "ENDPOINT_RESULT": 2000}
{"COMPOUND": "CCNCCCCNCC1CC1CNCCCCNCC (stereo not drawn) [SL-11093]", "ENDPOINT_RESULT": 400}
{"COMPOUND": "CCNCCCCNCC1CC1CNCCCCNCC (stereo not drawn) [SL-11098]", "ENDPOINT_RESULT": 400}
{"COMPOUND": "CCNC/C=C\\CNC/C=C\\CNCCCCNCC [SL-11119]", "ENDPOINT_RESULT": 970}
{"COMPOUND": "CCNCCCNCc1ccccc1CNCCCNCC [SL-11094]", "ENDPOINT_RESULT": 28800}
{"COMPOUND": "CCNCCCCNC/C=C\\CNCCCCNCC [SL-11102]", "ENDPOINT_RESULT": 730}
{"COMPOUND": "CCNCCCCNCC1CCC1CNCCCCNCC (stereo not drawn) [SL-11099]", "ENDPOINT_RESULT": 1000}
{"COMPOUND": "CCNCCCCNCc1ccccc1CNCCCCNCC [SL-11104]", "ENDPOINT_RESULT": 25800}

====

System: human prostate cancer cells DU145
Experiment: MTT assay, survival/growth of cultured human prostate cancer cells DU145
Type: cell-based
Conditions: Homo sapiens, DU-145; Table 4; DU145, growth by MTT assay; read-out: IC50 (μM) in different cell lines
Procedure: Human breast cancer cell line MCF7 was grown in Richter's Improved Modified Eagle's Medium supplemented with 10% fetal bovine serum (FBS) and 2.2 g/L sodium bicarbonate. Human brain tumor cell line U251 MG-NCI was grown in Dulbecco's Modified Eagle's Medium supplemented with 10% FBS. […] A conventional MTT assay was used to evaluate percent cell survival. […] A microplate reader (“EMAX”-brand, Molecular Devices, Sunnyvale, Calif.) set at 570 nm was used to determine the optical density of the cultures. […]
RECORDED_ENDPOINT: IC50 (µM)

{"STRUCTURE_SMILES_STRING": "CCNCCCCNCCCCNCCCCNCCCC1=C(C)c2cc3[nH]c(cc4nc(cc5[nH]c(cc1n2)c(CCCNCCCCNCCCCNCCCCNCC)c5C)C(CC)=C4C)c(CC)c3C", "RECORDED_ENDPOINT": "IC50", "UNITS": "µM", "ENDPOINT_RESULT": 4.6}

====

system: human lung cancer cells A549; test: MTT assay, survival/growth of cultured human lung cancer cells A549; type: cell-based; details: figure legends; survival of cultured A549 cells, MTT, six days after drug treatment; read-out: ED50 (the source's name)
Output true for records whose EC50 is lower than 300 nM, false for records at or above 300 nM.

{"MOLECULE": "CCNCCCCNCC1CCC1CNCCCCNCC (centres unmarked) [SL-11100]", "TESTED_ON": "human lung cancer cells A549", "LABEL": "false"}
{"MOLECULE": "CCNCCCCNC/C=C\\CNCCCCNCC [SL-11102]", "TESTED_ON": "human lung cancer cells A549", "LABEL": "true"}
{"MOLECULE": "CCNCCCNCCCCNCCCNCC [BE-343, N1,N12-bis(ethyl) spermine, reference compound]", "TESTED_ON": "human lung cancer cells A549", "LABEL": "true"}
{"MOLECULE": "CCNCCCCNCC1CC1CNCCCCNCC (centres unmarked) [SL-11098]", "TESTED_ON": "human lung cancer cells A549", "LABEL": "true"}
{"MOLECULE": "CCNCCCCNCCCCNCCCCNCC [BE-444, N1,N14-bis(ethyl) homospermine, reference compound]", "TESTED_ON": "human lung cancer cells A549", "LABEL": "true"}
{"MOLECULE": "CCNCCCCNCC1CCC1CNCCCCNCC (centres unmarked) [SL-11099]", "TESTED_ON": "human lung cancer cells A549", "LABEL": "false"}
{"MOLECULE": "CCNCCCCNCC1CC1CNCCCCNCC (centres unmarked) [SL-11093]", "TESTED_ON": "human lung cancer cells A549", "LABEL": "true"}

====

test system: human colon cancer cells HT29; assay: MTT assay, survival/growth of cultured human colon cancer cells HT29; assay type: cell-based; conditions: Homo sapiens, read-out: concentration needed for 50% growth inhibition (ID50); Table 3; HT-29

{"COMPOUND": "CNCCCNC[C@H]1CC[C@H]1CNCCCNC [SL-11090]", "TESTED_ON": "human colon cancer cells HT29", "UNITS": "µM", "QUALIFIER_SYMBOL": ">", "IC50": 31.2}
{"COMPOUND": "CCNC/C=C\\CNCCCCNCCCCNCCCCNCC [SL-11121]", "TESTED_ON": "human colon cancer cells HT29", "UNITS": "µM", "QUALIFIER_SYMBOL": "=", "IC50": 0.8}
{"COMPOUND": "CCNCCCCNC/C=C/CNCCCCNCC [SL-11101]", "TESTED_ON": "human colon cancer cells HT29", "UNITS": "µM", "QUALIFIER_SYMBOL": "=", "IC50": 5.2}
{"COMPOUND": "CCNCCCNCC#CCNCCCNCC [SL-11091]", "TESTED_ON": "human colon cancer cells HT29", "UNITS": "µM", "QUALIFIER_SYMBOL": ">", "IC50": 31.2}

====

Recorded IC50, one value per entry.
tested on: human prostate cancer cells DUPRO; test: MTT assay, survival/growth of cultured human prostate cancer cells DUPRO; assay type: cell-based; details: Homo sapiens, 144 h; figure legends; survival of cultured DUPRO cells, MTT, six days after drug treatment; read-out: ED50 (the source's name)

{"STRUCTURE_SMILES_STRING": "CCNC/C=C\\CNCCCCNC/C=C\\CNCCCCNCC", "IC50": "31.2 µM"}
{"STRUCTURE_SMILES_STRING": "CCNCCCCNC/C=C\\CNC/C=C\\CNCCCCNCC", "IC50": "> 31.2 µM"}
{"STRUCTURE_SMILES_STRING": "CCNC/C=C\\CNC/C=C\\CNCCCCNC/C=C\\CNCC", "IC50": "> 31.2 µM"}
{"STRUCTURE_SMILES_STRING": "CCNC/C=C\\CNC/C=C\\CNC/C=C\\CNCCCCNCC", "IC50": "> 31.2 µM"}

====

Each entry below carries its recorded IC50.
system: human breast cancer cells MCF7; test: MTT assay, survival/growth of cultured human breast cancer cells MCF7; assay type: cell-based; conditions: Homo sapiens, read-out: concentration needed for 50% growth inhibition (ID50); Table 3; MCF7
RECORDED_ENDPOINT: IC50

{"COMPOUND": "CNCCCNC[C@H]1CC[C@H]1CNCCCNC [SL-11090]", "ENDPOINT_RESULT": "> 31.2 µM"}
{"COMPOUND": "CCNCCCNCC#CCNCCCNCC [SL-11091]", "ENDPOINT_RESULT": "> 31.2 µM"}
{"COMPOUND": "CCNCCCCNCC#CCNCCCCNCC [SL-11103]", "ENDPOINT_RESULT": "> 31.2 µM"}
{"COMPOUND": "CCNCCCCNC/C=C/CNCCCCNCC [SL-11101]", "ENDPOINT_RESULT": "> 31.2 µM"}
{"COMPOUND": "CNCCCNCC#CCNCCCNC [SL-11092]", "ENDPOINT_RESULT": "> 31.2 µM"}
{"COMPOUND": "CCNC/C=C\\CNC/C=C\\CNC/C=C\\CNC/C=C\\CNCC [SL-11126]", "ENDPOINT_RESULT": "0.7 µM"}
{"COMPOUND": "CCNC/C=C\\CNCCCCNCCCCNCCCCNCC [SL-11121]", "ENDPOINT_RESULT": "17 µM"}
{"COMPOUND": "CCNCCCCNC/C=C\\CNC/C=C\\CNCCCCNCC [SL-11123]", "ENDPOINT_RESULT": "> 31.2 µM"}
{"COMPOUND": "CCNCCCCNCCCCNCCCCNCCCCNCC [BE-4444, reference compound]", "ENDPOINT_RESULT": "> 31.2 µM"}
{"COMPOUND": "CCNCCCCNC/C=C\\CNCCCCNCCCCNCC [SL-11122]", "ENDPOINT_RESULT": "> 31.2 µM"}
{"COMPOUND": "CCNC1CCCC1CNCCCNCC1CCCC1NCC (centres unmarked) [SL-11124]", "ENDPOINT_RESULT": "> 31.2 µM"}
